Tested on: L1210 leukemia ip in BDF1 mice, survival T/C
Experiment: NCI In Vivo Anticancer Drug Screen. Data for tumor model L1210 Leukemia (intraperitoneal) in B6D2F1 (BDF1) mice
Details: endpoint: mean survival time; dose: 100.0 mg/kg/injection; schedule: Q04DX003 (ip); vehicle: saline with Tween-80; higher = longer survival
Inconclusive results and toxic doses are left out.

compound: C#CCCC#C
testedOn: L1210 leukemia ip in BDF1 mice, survival T/C
T/C: 103 % of control
--
compound: CCN(C(C)=O)c1ccc(S(=O)(=O)Cl)cc1
testedOn: L1210 leukemia ip in BDF1 mice, survival T/C
T/C: 97 % of control
--
compound: CCCCCCCS(=O)(=O)CCCCCCC
testedOn: L1210 leukemia ip in BDF1 mice, survival T/C
T/C: 93 % of control
--
compound: Cc1csc(C)n1
testedOn: L1210 leukemia ip in BDF1 mice, survival T/C
T/C: 103 % of control
--
compound: Brc1ccc(Nc2c3ccccc3nc3ccccc23)cc1
testedOn: L1210 leukemia ip in BDF1 mice, survival T/C
T/C: 97 % of control
--
compound: COc1ccccc1CC(=O)O
testedOn: L1210 leukemia ip in BDF1 mice, survival T/C
T/C: 101 % of control
--
compound: CCCCSCCC
testedOn: L1210 leukemia ip in BDF1 mice, survival T/C
T/C: 117 % of control
--
compound: O=C1c2ccccc2C(=O)N1CCc1ccccn1
testedOn: L1210 leukemia ip in BDF1 mice, survival T/C
T/C: 102 % of control
--
compound: CSc1ccc(NC(=O)Nc2cccc(Cl)c2C)cc1
testedOn: L1210 leukemia ip in BDF1 mice, survival T/C
T/C: 92 % of control
--
compound: CC/C(=N/O)c1ccc(O)cc1O
testedOn: L1210 leukemia ip in BDF1 mice, survival T/C
T/C: 101 % of control
--
compound: BrCC(Br)CBr
testedOn: L1210 leukemia ip in BDF1 mice, survival T/C
T/C: 94 % of control
--
compound: O=c1[nH]c(-c2ccccc2)c(Br)c(=O)[nH]1
testedOn: L1210 leukemia ip in BDF1 mice, survival T/C
T/C: 97 % of control
--
compound: O=[N+]([O-])c1ccc(/C=N\Nc2ccccn2)s1
testedOn: L1210 leukemia ip in BDF1 mice, survival T/C
T/C: 93 % of control
--
compound: O=Cc1cccc(CC(O)(C(F)(F)F)C(F)(F)F)n1
testedOn: L1210 leukemia ip in BDF1 mice, survival T/C
T/C: 91 % of control
--
compound: Clc1ccc(N=NNc2ccc(Cl)cc2)cc1
testedOn: L1210 leukemia ip in BDF1 mice, survival T/C
T/C: 96 % of control
--
compound: O=C(CCCl)Nc1cccc2c1C(=O)c1c(c(O)c3ccccc3c1O)C2=O
testedOn: L1210 leukemia ip in BDF1 mice, survival T/C
T/C: 90 % of control
--
compound: CC(CSc1ccccc1)NCCO (stereo not drawn)
testedOn: L1210 leukemia ip in BDF1 mice, survival T/C
T/C: 97 % of control
--
compound: CCOC(=O)C1SCSCC1=O (stereo not drawn)
testedOn: L1210 leukemia ip in BDF1 mice, survival T/C
T/C: 102 % of control
--
compound: O=C(O)C1CCCCC1C(=O)Nc1ccc(Cl)cc1 (stereo not drawn)
testedOn: L1210 leukemia ip in BDF1 mice, survival T/C
T/C: 96 % of control
--
compound: CC1(c2ccc(Cl)cc2)NC(=O)N(CC(N)=O)C1=O (stereo not drawn)
testedOn: L1210 leukemia ip in BDF1 mice, survival T/C
T/C: 105 % of control
--
compound: COc1ccccc1SC(=O)N(C)C
testedOn: L1210 leukemia ip in BDF1 mice, survival T/C
T/C: 105 % of control
--
compound: COc1ccc(OCC(=O)O)c(C=O)c1
testedOn: L1210 leukemia ip in BDF1 mice, survival T/C
T/C: 115 % of control
--
compound: CCCC(=O)c1cc(O)c(O)cc1O
testedOn: L1210 leukemia ip in BDF1 mice, survival T/C
T/C: 95 % of control
--
compound: O=C1C=CC(=O)N1CO (tested in a mixture with another compound)
testedOn: L1210 leukemia ip in BDF1 mice, survival T/C
T/C: 97 % of control
--
compound: CCS(=O)(=O)CCNC(=O)NS(=O)(=O)c1ccc(C)cc1
testedOn: L1210 leukemia ip in BDF1 mice, survival T/C
T/C: 97 % of control
--
compound: Cc1c(NC(=O)Nc2cccc(F)c2)c(=O)n(-c2ccccc2)n1C
testedOn: L1210 leukemia ip in BDF1 mice, survival T/C
T/C: 104 % of control
--
compound: C/C=C/C(=O)Nc1cccc(OC(=O)NC(C)C)c1
testedOn: L1210 leukemia ip in BDF1 mice, survival T/C
T/C: 95 % of control
--
compound: S=C(NCCNC(=S)[S][Sn]([c]1ccccc1)([c]1ccccc1)[c]1ccccc1)[S][Sn]([c]1ccccc1)([c]1ccccc1)[c]1ccccc1
testedOn: L1210 leukemia ip in BDF1 mice, survival T/C
T/C: 96 % of control
